Property: growth; scope: individual molecules
test system: OVCAR-3 ovarian; assay: NCI-60 one-dose screen, 48 h (100 = growth as untreated, 0 = no growth, -100 = all killed); details: 10 µM unless noted
About 83,000 compounds went through this panel and 20% of them were active in at least one assay; those are over-represented in the sample as a whole.

chem_smiles	target_of_assay	growth / %
CCOC(=O)c1c(/N=C2\SC(=O)/C(=C\C(=O)OC)N2NC)sc2c1CCN(C(=O)OCC)C2	OVCAR-3 ovarian	106
CN1CCN(Cc2ccc(NC(=O)c3cncc(C#Cc4cnc(N)c5cnccc45)c3)cc2C(F)(F)F)CC1	OVCAR-3 ovarian	35.7
S=C1CC(=S)NC(=S)N1	OVCAR-3 ovarian	116
CCCCN(CCCC)C(=N)c1ccnc2ccccc12	OVCAR-3 ovarian	104
COc1ccc(-c2cnnn2-c2nonc2-n2cccc2)cc1OC	OVCAR-3 ovarian	30.2
N[C@H]1CN(C(=O)c2cc3cc(Br)c(F)c(F)c3[nH]2)C[C@@H]1O	OVCAR-3 ovarian	102
Fc1ccc(Nc2ncnc3ccc(-c4cnc5[nH]ccc5c4)cc23)cc1Cl	OVCAR-3 ovarian	-73.7
C=C1C(=O)O[C@H]2[C@H]1CC/C(Cn1cc(CNC(=O)Cc3cn(C(=O)c4ccc(Cl)cc4)c4ccc(OC)cc34)nn1)=C\CC[C@@]1(C)O[C@@H]21	OVCAR-3 ovarian	-82.3
Cc1ccc(S(=O)(=O)/C(=C\c2ccc(Cl)cc2)C(=O)c2ccccc2)cc1	OVCAR-3 ovarian	119
COc1ccc(NC(=O)c2cc(OC)c(OC)c(OC)c2)cc1O	OVCAR-3 ovarian	-27.6

All values here come from PubChem BioAssay (NCI).
